# System: maize
# Measurement Protocol: Test D post-emergence, maize seed treated with a herbicide safener
# Assay type: in vivo
# Assay Conditions: rate 500, evaluated after 15 d
Measured Quantity: damage to plant (100=total damage to plant; 0=no damage to plant), ZEAMX

Consider the following illustrative entries.
Molecule | Result
CN1CC(c2cc(C(F)(F)F)n(C)n2)C(C(=O)Nc2ccc(F)c(F)c2F)C1=O (racemic) | 0
CCn1nc([C@@H]2CN(C)C(=O)[C@H]2C(=O)Nc2cccc(F)c2F)c2cccc(F)c21 | 20
CN1CC(c2cc(C(F)(F)F)n(C)n2)C(C(=O)Nc2cccc(F)c2F)C1=O (racemic) | 10

Query string: For "CCn1nc([C@H]2CN(C)C(=O)[C@@H]2C(=O)Nc2cccc(F)c2F)c2c(F)cccc21" , what is its reported damage to plant (100=total damage to plant; 0=no damage to plant), ZEAMX?
Result string: 10

Query string: # get_value(readout='damage to plant (100=total damage to plant; 0=no damage to plant), ZEAMX', item= CN1CC(c2cc(C(F)(F)F)n(C)n2)C(C(=O)Nc2cccc(F)c2C(F)(F)F)C1=O (racemic) )
Result string: 30

Query string: I have this molecule here, CN1CC(c2cc(C(F)(F)F)n(C)n2)C(C(=O)Nc2ccc(F)cc2C(C)(F)F)C1=O (racemic) , and I need its recorded damage to plant (100=total damage to plant; 0=no damage to plant), ZEAMX.
Result string: 10

----------
# Tested on: plants
# Measurement Protocol: Test D pre-emergence, other plants of Tables D1 and D3
# Type: in vivo
# Assay Conditions: EPHHL; preemergent; rate 130; 20 DAA
Measured Quantity: damage to plant (100=total damage to plant; 0=no damage to plant), EPHHL
Just the number, please.

Answered examples (2):
Molecule | Experimental Target | Readout Number
CN1C[C@H](c2nn(C)c3c(F)cccc23)[C@@H](C(=O)Nc2cccc(F)c2F)C1=O | plants | 0
CN1CC(c2cc(C(F)(F)F)n(C)n2)C(C(=O)Nc2ccc(F)c(F)c2F)C1=O (racemic) | plants | 0

Would you kindly look at the next entry?
Query string: Form entry - test system: plants; read-out: damage to plant (100=total damage to plant; 0=no damage to plant), EPHHL; molecule: CN1CC(c2cc(C(F)(F)F)n(C)n2)C(C(=O)Nc2ccc(F)nc2F)C1=O (racemic)
Result string: 0

----------
Listed here are compounds together with their documented damage to plant, CHEAL.
# System: plants
# Measurement Protocol: Test D pre-emergence, other plants of Tables D1 and D3
# Assay type: in vivo
# Assay Conditions: pre-emergence, rate 500, 20 DAA, 100=total damage, 0=no damage
# Experimental: A formulation containing 50 g/L of the test chemical was prepared by dissolving the active ingredient in a mixture of organic solvents and emulsifier, details of which are provided in the table. This formulation was then mixed with a small, variable amount of acetone to aid dissolution, before addition of a 0.2% v/v aqueous solution of an adjuvant, as the aqueous diluent, to form an aqueous spray solution which contains a predetermined concentration of the active ingredient. […]
Could you keep your reply to the number by itself?

Compound | Readout Number
CN1CC(c2cc(C(F)(F)F)n(C)n2)C(C(=O)Nc2cccc(F)c2C(F)(F)F)C1=O (racemic) | 20
COc1c(F)cccc1NC(=O)C1C(=O)N(C)CC1c1cc(C(F)(F)F)n(C)n1 (racemic) | 30
CN1CC(c2cc(C(F)(F)F)n(C)n2)C(C(=O)Nc2cccc(F)c2F)C1=O (racemic) | 0
CN1CC(c2cc(C(F)(F)F)n(C)n2)C(C(=O)Nc2ccc(F)c(F)c2F)C1=O (racemic) | 70

# context switch: different compound, same damage to plant, CHEAL
Query string: For "CCn1nc([C@H]2CN(C)C(=O)[C@@H]2C(=O)Nc2cccc(F)c2F)c2c(F)cccc21" , what is its reported damage to plant, CHEAL?
Result string: 0

----------
# Tested on: plants
# Measurement Protocol: Test D pre-emergence, other plants of Tables D1 and D3
# Assay type: in vivo
# Assay Conditions: pre-emergence, rate 250, 20 DAA, 100=total damage, 0=no damage
Measured Quantity: damage to plant, HORVW
API note: the answer field is a bare number with no unit suffix.

Example molecules with recorded damage to plant, HORVW:
Molecule | damage to plant, HORVW
CN1CC(c2cc(C(F)(F)F)n(C)n2)C(C(=O)Nc2ccc(F)cc2C(C)(F)F)C1=O (racemic) | 40
CN1CC(c2cc(C(F)(F)F)n(C)n2)C(C(=O)Nc2ccccc2F)C1=O (racemic) | 0
CCn1nc([C@@H]2CN(C)C(=O)[C@H]2C(=O)Nc2cccc(F)c2F)c2cccc(F)c21 | 60
CN1CC(c2cnn(C)c2C(F)(F)F)C(C(=O)Nc2cccc(F)c2F)C1=O (racemic) | 0
CN1CC(c2cc(C(F)(F)F)n(C)n2)C(C(=O)Nc2cccc(F)c2C(F)(F)F)C1=O (racemic) | 0

Query string: So what does the record say about damage to plant, HORVW for CN1CC(c2cc(C(F)(F)F)n(C)n2)C(C(=O)Nc2ccc(F)nc2F)C1=O (racemic) ?
Result string: 0

Query string: Which damage to plant, HORVW reading was recorded for the molecule "CCn1nc([C@H]2CN(C)C(=O)[C@@H]2C(=O)Nc2cccc(F)c2F)c2ccc(F)cc21" ?
Result string: 0

Query string: State the recorded damage to plant, HORVW for this entry: CN1CC(c2cc(C(F)(F)F)n(C)n2)C(C(=O)Nc2ccc(F)cc2F)C1=O (racemic)
Result string: 10

----------
# System: plants
# Measurement Protocol: Test D post-emergence, other plants of Tables D2 and D4
# Type: in vivo
# Assay Conditions: BRSNN; "Cereals" Postemergent; Rates 500; evaluated after 15 d
Below: a set of entries, each annotated with reported BRSNN damage rating (100=total damage to plant; 0=no damage to plant).

Before answering, review these 3 worked examples.
Compound | Result
CN1CC(c2cc(C(F)(F)F)n(C)n2)C(C(=O)Nc2cccc(F)c2F)C1=O (racemic) | 0
CN1CC(c2cc(C(F)(F)F)n(C)n2)C(C(=O)Nc2cccc(F)c2C(F)(F)F)C1=O (racemic) | 10
CN1CC(c2cc(C(F)(F)F)n(C)n2)C(C(=O)Nc2ccc(F)nc2F)C1=O (racemic) | 10

Next compound, BRSNN damage rating (100=total damage to plant; 0=no damage to plant) to be filled in.
Query string: Need BRSNN damage rating (100=total damage to plant; 0=no damage to plant), item CN1CC(c2cc(C(F)(F)F)n(C)n2)C(C(=O)Nc2cccc(F)n2)C1=O (racemic)
Result string: 0

----------
# Test system: velvetleaf (Abutilon theophrasti, ABUTH)
# Measurement Protocol: Test A pre-emergence, velvetleaf
# Assay type: in vivo
# Assay Conditions: Pre-Emergence at 15.625 g/ha; after 13 d
Reported damage to plant (100=total damage; 0=no damage) ABUTH by item:
Lab note: record just the number, no unit beside it.

Use the examples below as a reference point.
Compound | Readout Number
CN1CC(c2nn(C)c(Cl)c2Br)C(C(=O)Nc2cccc(F)c2F)C1=O (racemic) [Compound 28] | 0
CCn1nc([C@H]2CN(C)C(=O)[C@@H]2C(=O)Nc2ccc(F)nc2F)c2cccc(F)c21 [Compound 11] | 0

Query string: Please look up its damage to plant (100=total damage; 0=no damage) ABUTH: CCn1nc([C@H]2CN(C)C(=O)[C@@H]2C(=O)Nc2cccc(F)c2F)c2c(F)cccc21 [Compound 7]
Result string: 0

----------
damage to plant (100=total damage to plant; 0=no damage to plant), EPHHL values, listed per item
# Test system: plants
# Measurement Protocol: Test D pre-emergence, other plants of Tables D1 and D3
# Format: in vivo
# Assay Conditions: EPHHL; preemergent; rate 130; 20 DAA
Lab note: jot the number down without any unit.

Reference set (3 entries):
Compound | Readout Number
CN1CC(c2cnn(C)c2C(F)(F)F)C(C(=O)Nc2cccc(F)c2F)C1=O (racemic) | 0
CCn1nc([C@@H]2CN(C)C(=O)[C@H]2C(=O)Nc2cccc(F)c2F)c2cccc(F)c21 | 0
CN1CC(c2cc(C(F)(F)F)n(C)n2)C(C(=O)Nc2ccc(F)cc2C(C)(F)F)C1=O (racemic) | 0

// below: damage to plant (100=total damage to plant; 0=no damage to plant), EPHHL requested for another compound
Query string: Fill in the blank: the reported damage to plant (100=total damage to plant; 0=no damage to plant), EPHHL of CN1CC(c2cc(C(F)(F)F)n(C)n2)C(C(=O)Nc2ccccc2F)C1=O (racemic) is ____.
Result string: 0

----------
The following molecules are shown together with reported damage to plant, BROTE values.
# System: plants
# Measurement Protocol: Test D pre-emergence, other plants of Tables D1 and D3
# Assay type: in vivo
# Assay Conditions: pre-emergence, rate 130, 20 DAA, 100=total damage, 0=no damage

Consider the worked cases shown below.
Molecule | Experimental Target | damage to plant, BROTE
CN1C[C@H](c2nn(C)c3c(F)cccc23)[C@@H](C(=O)Nc2cccc(F)c2F)C1=O [Compound 2] | plants | 10
CN1CC(c2cc(C(F)(F)F)n(C)n2)C(C(=O)Nc2ccc(F)c(F)c2F)C1=O (racemic) [Compound 17] | plants | 0
CN1CC(c2cc(C(F)(F)F)n(C)n2)C(C(=O)Nc2cccc(F)n2)C1=O (racemic) [Compound 24] | plants | 0
CN1CC(c2cc(C(F)(F)F)n(C)n2)C(C(=O)Nc2cccc(F)c2F)C1=O (racemic) [Compound 3] | plants | 0
CN1CC(c2cc(C(F)(F)F)n(C)n2)C(C(=O)Nc2cccc(F)c2C(F)(F)F)C1=O (racemic) [Compound 19] | plants | 0

Now take the following molecule into account.
Query string: Recorded damage to plant, BROTE of CCn1nc([C@@H]2CN(C)C(=O)[C@H]2C(=O)Nc2cccc(F)c2F)c2cccc(F)c21 [Compound 14] , please.
Result string: 0
